Tested on: HOP-62 NSCLC
Assay: NCI-60 one-dose screen, 48 h (100 = growth as untreated, 0 = no growth, -100 = all killed)
Conditions: 10 µM unless noted
This is part of a sample that, as a whole, favours compounds with a hit. Of some 83,000 tested, about 20% had one in any assay.
readout type: growth (%)
Write the answer as a number in %, unit excluded.

O=C(CI)NCCNc1cccc2c(S(=O)(=O)O)cccc12 : 107
CCCCCCCCCC1=NC(C)(C)CN1C(C)(C)CO : 100
O=C(c1ccccc1)N(CCCCl)C(=O)N(CCCCl)C(=O)c1ccccc1 : 86.7
Cc1ccc(-c2nc3ccccc3c(=O)n2/N=C/c2cccc3ccccc23)cc1 : 83.1
COc1ccc(C(=O)C(CN(C)C)c2ccccc2)cc1 (configuration not stated) : 83.6

Query: # get_value(readout= growth, system= HOP-62 NSCLC) for Clc1ccc(-c2nc(Br)cn3ccnc23)cc1
Result: 84.3

Query: Input COc1ccc(OC)c(Nc2nc(-c3c(C)nc4sccn34)cs2)c1
Result: 75.7
